All values here come from paper PMC7755424.

- Target under test: human sEH (Homo sapiens, UniProt P34913)
- Test details: sEH inhibition, fluorescent-based assay
- Format: biochemical
- Condition label: compared with 12
Measured parameter: reduction of the potency (hsEH) relative to 12

Illustrative cases are given below, each with its answer.
INSERT INTO results (compound, target_under_test, result) VALUES
  ('O=C(NC1CCN(Cc2ccccc2)CC1)NC12CC3CC(CC(C3)O1)C2 [Compound 15]', 'human sEH (Homo sapiens, UniProt P34913)', '~40 fold'),
  ('O=C(NC1CCN(C(=O)C2CCOCC2)CC1)NC12CC3CC(CC(C3)O1)C2 [Compound 19]', 'human sEH (Homo sapiens, UniProt P34913)', '10–15 fold'),
  ('CS(=O)(=O)N1CCC(NC(=O)NC23CC4CC(CC(C4)O2)C3)CC1 [Compound 26]', 'human sEH (Homo sapiens, UniProt P34913)', 'eight'),
  ('CCC(=O)N1CCC(NC(=O)NC23CC4CC(CC(C4)O2)C3)CC1 [Compound 24]', 'human sEH (Homo sapiens, UniProt P34913)', '10–15 fold');

Suppose we examine the compound O=C(NC1CCN(C(=O)C2CC2)CC1)NC12CC3CC(CC(C3)O1)C2 [Compound 23] ; what reduction of the potency (hsEH) relative to 12 value has been reported?
10–15 fold

* * *

Measured pIC50 accompanies every entry in the list below.
- Target under test: human sEH (Homo sapiens, UniProt P34913)
- Sequence (P34913 1-555): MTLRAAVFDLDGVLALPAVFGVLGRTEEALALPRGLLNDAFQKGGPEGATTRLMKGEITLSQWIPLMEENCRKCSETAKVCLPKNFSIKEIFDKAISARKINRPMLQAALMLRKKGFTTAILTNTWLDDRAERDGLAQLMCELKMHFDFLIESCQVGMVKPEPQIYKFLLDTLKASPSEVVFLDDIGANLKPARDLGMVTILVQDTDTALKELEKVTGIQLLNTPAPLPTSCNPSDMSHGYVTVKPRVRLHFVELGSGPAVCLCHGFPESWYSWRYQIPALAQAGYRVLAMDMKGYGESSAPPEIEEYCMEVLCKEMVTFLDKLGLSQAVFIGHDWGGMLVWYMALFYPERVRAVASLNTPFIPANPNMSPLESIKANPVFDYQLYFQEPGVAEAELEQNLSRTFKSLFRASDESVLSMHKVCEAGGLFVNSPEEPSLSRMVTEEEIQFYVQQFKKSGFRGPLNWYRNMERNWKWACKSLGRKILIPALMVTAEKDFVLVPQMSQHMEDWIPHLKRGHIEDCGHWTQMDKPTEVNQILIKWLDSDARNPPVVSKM
- Test details: sEH inhibition, fluorescent-based assay
- Format: biochemical
Scale for pIC50: -log10 of concentration given in mol/L; no unit attached.

INSERT INTO assay_data (molecule, target_under_test, measured_number) VALUES
  ('O=C(Nc1ccc(F)c(F)c1F)NC12CC3CC(C1)OC(C3)C2', 'human sEH (Homo sapiens, UniProt P34913)', 7.32);

Suppose we examine the molecule O=C(Nc1ccc(F)c(F)c1F)NC12OC3C4C5CC(C6C5C3C61)C42 (centres unmarked) ; what pIC50 value has been reported?
7.50

* * *

- Test details: Solubility by light scattering
- Format: physicochemical
- Condition label: 1% DMSO:99% PBS buffer
Measured parameter: solubility at 2 h (µM)
API: value field is a number in µM; no unit string.

Suppose we examine the molecule CC(=O)N1CCC(NC(=O)NC23CC4CC(CC(C4)C2)C3)CC1 [Compound 1] ; what solubility at 2 h value has been reported?
24
